A short record of MIC observed with Acinetobacter baumannii MFBF 10913 follows.
Report the figure in µg/mL without appending any unit label.

# COMPOUND, MEASUREMENT_TARGET, VALUE_REPORTED
rows = [
    ("COc1cc(NC(C)CCCNC(=O)/C=C/C(=O)Nc2ccc(Cl)cc2)c2ncccc2c1 (stereo not shown)", "Acinetobacter baumannii MFBF 10913", 12.5),
    ("COc1cc(NC(C)CCCNC(=O)/C=C/C(=O)Nc2ccc(F)cc2)c2ncccc2c1 (stereo not shown)", "Acinetobacter baumannii MFBF 10913", 25),
    ("COc1cc(NC(C)CCCNC(=O)/C=C/C(=O)Nc2cccc(Cl)c2)c2ncccc2c1 (stereo not shown)", "Acinetobacter baumannii MFBF 10913", 25),
    ("COc1cc(NC(C)CCCNC(=O)/C=C/C(=O)Nc2cccc(C(F)(F)F)c2)c2ncccc2c1 (stereo not shown)", "Acinetobacter baumannii MFBF 10913", 25),
    ("COc1cc(NC(C)CCCNC(=O)/C=C/C(=O)Nc2ccc(C(F)(F)F)cc2)c2ncccc2c1 (stereo not shown)", "Acinetobacter baumannii MFBF 10913", 25),
]

Now look at this entry.
Item CN(C)[C@@H]1C(O)=C(C(N)=O)C(=O)[C@@]2(O)C(O)=C3C(=O)c4c(O)cccc4[C@@](C)(O)[C@H]3C[C@@H]12 [TC, tetracycline, reference compound] with Acinetobacter baumannii MFBF 10913 - MIC? 3
